Every entry's value here was drawn from ChEMBL document CHEMBL3988442.

- tested_system: Arginase-2, mitochondrial (Homo sapiens)
- experiment_summary: in vitro enzyme assay to detect the production of urea directly proportional to the activity of Arginase II; also: in the data most compounds retested in dose-response had high values
- Type: functional
- Design: scale not given: direction of the effect not stated beside the values
- cond: 33.3 µM
Exercise: state measured Percent Effect for each of the compounds provided.
Please report the result as a number followed by the unit.

-- ask // Percent Effect lookup, key: Cc1noc(C)c1C(=O)NCc1ccc(N2CCOC(C)C2)nc1 (stereo not drawn)
-- reply -0.887%

-- ask Now this one: Cc1cc(CN2CCN(CCOc3cccc(C#N)c3)CC2)no1
-- reply 1.44%

-- ask Now this one: Cn1cc(Br)c(=O)c(NS(=O)(=O)c2cc(F)ccc2Cl)c1
-- reply -2.38%

-- ask Now this one: CCC(NC(=O)c1ccco1)c1ccccc1OCC(=O)N1CCCC1 (stereo not drawn)
-- reply -5.33%

-- ask Now this one: CC(C)(C)OC(=O)CNC(=O)CCc1nnc(-c2ccsc2)o1
-- reply 24.8%

-- ask Now this one: O=C(Cc1csc(-c2ccc(Cl)cc2)n1)NC(C(=O)O)c1ccccc1 (stereo not drawn)
-- reply -9.68%

-- ask Now this one: O=C1CCC2(CCCN(CCc3ccccc3)C2)N1Cc1cccnc1 (stereo not drawn)
-- reply 2.28%

-- ask Now this one: O=C(Cc1ccccc1F)N1CCN(C(=O)c2cccc(F)c2)CC1
-- reply 3.55%

-- ask Now this one: CC(=O)Nc1cc(C(=O)N2CCOCC2c2ccc(C)o2)ccc1F (stereo not drawn)
-- reply -1.04%

-- ask Now this one: CCCc1cc(C(=O)N2CCCC2c2cccnc2)[nH]n1 (stereo not drawn)
-- reply 4.54%

-- ask Now this one: O=C(c1cccn2ccnc12)N1CCCN(c2cccnn2)CC1
-- reply 1.9%

-- ask Now this one: Cc1ccc(CNC(=O)NCc2cccnc2N(C)C)s1
-- reply -3.2%

-- ask Now this one: CN(C)Cc1ccc(C2CCCCN2C(=O)c2cccc(CO)n2)cc1 (stereo not drawn)
-- reply 23.4%

-- ask Now this one: CCNc1nc2c(s1)C(=O)CN(C(=O)NCCc1ccccc1)C2
-- reply 3.99%

-- ask Now this one: Cc1cc(NC(=O)CN2CCCC2c2noc(C(C)C)n2)n(C)n1 (stereo not drawn)
-- reply -0.444%

-- ask Now this one: O=C(COc1coc(CN2CCCCC2)cc1=O)Nc1ccc(Cl)cc1
-- reply -7.92%

-- ask Now this one: Cc1cc(C)n(C2CCCN(C(=O)c3cc(C4CC4)on3)C2)n1 (stereo not drawn)
-- reply -1.05%

-- ask Now this one: CC(C)c1nc2n(n1)CC(NCc1ncc(-c3ccccc3)o1)CC2 (stereo not drawn)
-- reply 4.84%

-- ask Now this one: CN(C)S(=O)(=O)N1CCN(c2ccnc(N3CCCC3)n2)CC1
-- reply -1.75%

-- ask Now this one: COc1ccc(CCC(=O)N2CCCC2Cn2cc(C)cn2)cc1F (stereo not drawn)
-- reply 4%

-- ask Now this one: COc1ccccc1OCCN1CCCC(c2cc(C(N)=O)[nH]n2)C1 (stereo not drawn)
-- reply 4.43%

-- ask Now this one: CC(C)c1nc(C2CCCN(Cc3nnc(C4CC4)o3)C2)no1 (stereo not drawn)
-- reply 4.88%

-- ask Now this one: Cn1nc2c(cc1=O)CN(Cc1nnc(-c3ccc(F)cc3)o1)CC2
-- reply 7.79%

-- ask Now this one: Cc1ncc(CNC(=O)c2nn(C)c3c2CS(=O)(=O)CC3)s1
-- reply -6.16%

-- ask Now this one: CS(=O)(=O)N1CCC2(CC1)CC(CC(=O)N1CCCC1)c1ccccc12 (stereo not drawn)
-- reply -5.67%

-- ask Now this one: O=C(NCCN1CCOCC1)NCC(O)c1cccc(F)c1 (stereo not drawn)
-- reply -6.01%

-- ask Now this one: CCNc1cc2c(nn1)CCN(C(=O)Cc1noc3ccccc13)C2
-- reply 0%

-- ask Now this one: Cc1cnn(CCNCC(=O)NCC2(c3ccccc3)CCC2)c1
-- reply -3.58%

-- ask Now this one: COC[C@@]12CCO[C@@H]1CCN(C(=O)Cc1ccccc1F)C2
-- reply -3.19%

-- ask Now this one: Cn1nnc2c1CCN(Cc1nccs1)C2COCc1ccccc1 (stereo not drawn)
-- reply 5.83%

-- ask Now this one: COc1cc2cc(C(=O)N[C@@H](C)C(=O)O)n(C)c2c(OC)c1OC
-- reply -12.8%

-- ask Now this one: CCc1ccccc1CN1CC[C@@H](NC(=O)c2cccnc2)[C@H](O)C1
-- reply 0%

-- ask Now this one: Cc1ccc2cc(C3(O)CCN(C(=O)CN4CCCC4)CC3)ccc2n1
-- reply 3.53%

-- ask Now this one: COc1ncnc2c1CCN(c1cc(C(F)(F)F)ncn1)CC2
-- reply -57.5%

-- ask Now this one: Cc1c(F)cc(C(=O)O)cc1S(=O)(=O)Nc1ccc2c(c1)OCCO2
-- reply -4.51%

-- ask Now this one: Cc1ncc2c(n1)CN(CCCc1nc3ccccc3o1)CC2
-- reply -3.1%

-- ask Now this one: Cc1noc(C)c1C(=O)N1CC[C@H]2C[C@@H](c3nccs3)O[C@@H]2C1
-- reply -10.5%

-- ask Now this one: Fc1ccc(CN2CCCC2Cn2cccn2)c2ncccc12 (stereo not drawn)
-- reply -0.185%

-- ask Now this one: CCCn1nccc1C(=O)N1CCCN(CCCc2ccccc2)CC1
-- reply -4.79%

-- ask Now this one: CC1CCN(C(=O)c2cccc3ncccc23)CC1
-- reply -1.33%

-- ask Now this one: COc1ccccc1CC(=O)N1CC[C@@]2(CCCO2)[C@@H](OC)C1
-- reply -9.29%

-- ask Now this one: COCCCC1CCCN(C(=O)CCc2cc(O)no2)C1 (stereo not drawn)
-- reply 13.2%

-- ask Now this one: CN(CCNC(=O)N1CCN(Cc2ccon2)CC1)C1CCCC1
-- reply 4.69%

====

- Species on record: Homo sapiens
- experiment_summary: To identify inhibition of the IFN signalling (Jak-Stat) pathway via expression of an eGFP reporter gene under the control of an IFN-stimulated response element (ISRE) containing MxA promoter.
- Format: functional
- Design: scale not given: direction of the effect not stated beside the values
- cond: 30 µM
quantity_kind: Percent Effect (%)
Field: numeric (%). Do not append units.

-- ask // Percent Effect lookup, key: CC(C)C(C)NC(=O)Nc1ccc(CS(C)(=O)=O)cc1 (stereo not drawn)
-- reply 12.9

-- ask Now this one: O=S(=O)(NCC1(O)CCOc2ccccc21)c1ccc(Br)s1 (stereo not drawn)
-- reply 21.1

-- ask Now this one: Cc1noc(C2CCCCN2C(=O)NC2CCCC2)n1 (stereo not drawn)
-- reply 0.903

====

- tested_system: Sialic acid-binding Ig-like lectin 9 (Homo sapiens) (UniProt Q9Y336)
- Sequence (Q9Y336 whole entry): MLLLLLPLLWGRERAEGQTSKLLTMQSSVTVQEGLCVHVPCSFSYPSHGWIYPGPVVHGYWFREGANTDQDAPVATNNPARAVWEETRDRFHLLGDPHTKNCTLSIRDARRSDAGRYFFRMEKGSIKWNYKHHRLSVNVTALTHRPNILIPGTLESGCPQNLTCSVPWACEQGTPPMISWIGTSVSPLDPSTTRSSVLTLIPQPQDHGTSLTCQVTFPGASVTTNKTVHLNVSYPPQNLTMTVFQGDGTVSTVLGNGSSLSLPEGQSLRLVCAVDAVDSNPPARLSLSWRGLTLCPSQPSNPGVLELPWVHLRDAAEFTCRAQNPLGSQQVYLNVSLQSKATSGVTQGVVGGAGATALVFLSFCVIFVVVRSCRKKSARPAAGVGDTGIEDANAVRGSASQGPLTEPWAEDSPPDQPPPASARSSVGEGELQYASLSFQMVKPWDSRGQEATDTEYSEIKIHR
- experiment_summary: Hs-Siglec9 ALPHAscreen SOP 20170721
- Set-up: scale not given: direction of the effect not stated beside the values
- cond: 10 µM
quantity_kind: Percent Effect (%)
Field: numeric (%). Do not append units.

-- ask // Percent Effect lookup, key: COCCCC1CCCN(C(=O)CCc2cc(O)no2)C1 (centres undefined)
-- reply 2.98

-- ask Now this one: Cc1ncc(CNC(=O)c2nn(C)c3c2CS(=O)(=O)CC3)s1
-- reply 5.84

-- ask Now this one: Cc1nn(-c2ccccc2)cc1C(=O)N1CCCC(n2cccn2)C1 (centres undefined)
-- reply 4.19

-- ask Now this one: CN1[C@H](Cn2cccn2)C[C@@H]2CN(C(=O)Cc3cccs3)CC[C@@H]21
-- reply -0.662

====

Exercise: state measured Percent Effect for each of the compounds provided.
- tested_system: Arginase-2, mitochondrial (Homo sapiens) (UniProt P78540)
- Sequence (P78540 whole entry): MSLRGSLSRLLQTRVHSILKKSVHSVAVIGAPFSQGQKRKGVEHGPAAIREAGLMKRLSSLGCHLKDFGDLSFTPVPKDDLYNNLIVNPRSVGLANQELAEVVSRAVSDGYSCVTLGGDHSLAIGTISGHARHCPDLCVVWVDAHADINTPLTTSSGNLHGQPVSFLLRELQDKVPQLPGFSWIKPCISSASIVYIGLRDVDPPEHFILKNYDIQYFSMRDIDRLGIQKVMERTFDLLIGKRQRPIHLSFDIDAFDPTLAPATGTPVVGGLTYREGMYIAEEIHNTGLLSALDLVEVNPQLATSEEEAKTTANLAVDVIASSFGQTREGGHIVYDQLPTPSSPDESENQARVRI
- experiment_summary: in vitro enzyme assay to detect the production of urea directly proportional to the activity of Arginase II; also: in the data most compounds retested in dose-response had high values
- Assay type: functional
- Parameters: scale not given: direction of the effect not stated beside the values
- cond: 30 µM

-- ask // Percent Effect lookup, key: CS(=O)(=O)N1CCN(C(=O)Cn2ccc3c(Cl)cccc32)CC1
-- reply 5.95%

-- ask Now this one: COc1ccc2c(c1)OCC(CNC(=O)c1ccc(=O)n(C)c1)C2 (stereo not drawn)
-- reply -5.95%

-- ask Now this one: CN(C)[C@H]1CCCCN(C(=O)CCc2csc(N)n2)C1
-- reply 2.7%

====

- tested_system: Protein translocase subunit SecA (Escherichia coli (strain K12)) (UniProt P10408)
- Sequence (P10408 whole entry): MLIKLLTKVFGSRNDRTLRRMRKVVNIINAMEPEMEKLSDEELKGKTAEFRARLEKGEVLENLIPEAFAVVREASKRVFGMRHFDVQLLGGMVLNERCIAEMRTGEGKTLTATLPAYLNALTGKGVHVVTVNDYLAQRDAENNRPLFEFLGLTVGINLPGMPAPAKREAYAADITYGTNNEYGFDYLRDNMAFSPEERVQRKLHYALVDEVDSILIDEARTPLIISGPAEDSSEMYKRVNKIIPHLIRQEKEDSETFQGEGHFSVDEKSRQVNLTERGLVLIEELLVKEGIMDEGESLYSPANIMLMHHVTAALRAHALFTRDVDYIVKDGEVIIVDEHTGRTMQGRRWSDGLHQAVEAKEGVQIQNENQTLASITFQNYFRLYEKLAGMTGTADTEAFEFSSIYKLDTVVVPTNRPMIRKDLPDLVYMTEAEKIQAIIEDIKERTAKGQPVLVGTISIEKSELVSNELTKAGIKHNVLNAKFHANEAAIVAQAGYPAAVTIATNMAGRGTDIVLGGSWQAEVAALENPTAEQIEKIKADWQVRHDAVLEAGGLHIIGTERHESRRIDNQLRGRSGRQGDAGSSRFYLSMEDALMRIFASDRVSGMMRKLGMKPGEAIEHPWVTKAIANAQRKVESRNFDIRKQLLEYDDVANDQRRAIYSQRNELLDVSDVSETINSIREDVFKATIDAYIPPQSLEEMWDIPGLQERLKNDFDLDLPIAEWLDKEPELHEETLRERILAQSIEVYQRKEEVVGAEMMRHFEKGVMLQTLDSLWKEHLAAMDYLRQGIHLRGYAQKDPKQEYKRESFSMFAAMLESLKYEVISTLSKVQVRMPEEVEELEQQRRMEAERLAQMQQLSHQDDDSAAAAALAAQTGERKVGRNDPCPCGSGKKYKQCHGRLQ
- experiment_summary: Assay to Identify E. coli SecA ATPase Inhibitors
- Type: functional
- Parameters: scale not given: direction of the effect not stated beside the values
- cond: 30 µM
Measured potencies and affinities stand elsewhere.
Exercise: state measured Percent Effect for each of the compounds provided.
Field: numeric (%). Do not append units.

-- ask // Percent Effect lookup, key: Cn1cc(CN2CCn3cc(CNC(=O)c4cccn4C)nc3C2)cn1
-- reply -0.61

-- ask Now this one: CN(CCNC(=O)N1CCN(Cc2ccon2)CC1)C1CCCC1
-- reply -7

-- ask Now this one: COCCNC(=O)CN1CCN(c2nc(C)cs2)C(C)C1 (centres undefined)
-- reply -6.14

-- ask Now this one: NC(=O)c1cc(C2CCCN(CCc3ccccn3)C2)n[nH]1 (centres undefined)
-- reply -0.145
